Molecular target: UniProt P25694
ASSAY READOUT: IC50 (µM)
One number for each entry, in µM.

Item C=CC(=O)Nc1ncnc2c1c(-c1ccccc1)nn2C(C)(C)C has what recorded IC50? 300

----------
Biological target: T532C-yeast Cdc48 (Saccharomyces cerevisiae, UniProt P25694, T532C)
Sequence (P25694 whole entry T532C): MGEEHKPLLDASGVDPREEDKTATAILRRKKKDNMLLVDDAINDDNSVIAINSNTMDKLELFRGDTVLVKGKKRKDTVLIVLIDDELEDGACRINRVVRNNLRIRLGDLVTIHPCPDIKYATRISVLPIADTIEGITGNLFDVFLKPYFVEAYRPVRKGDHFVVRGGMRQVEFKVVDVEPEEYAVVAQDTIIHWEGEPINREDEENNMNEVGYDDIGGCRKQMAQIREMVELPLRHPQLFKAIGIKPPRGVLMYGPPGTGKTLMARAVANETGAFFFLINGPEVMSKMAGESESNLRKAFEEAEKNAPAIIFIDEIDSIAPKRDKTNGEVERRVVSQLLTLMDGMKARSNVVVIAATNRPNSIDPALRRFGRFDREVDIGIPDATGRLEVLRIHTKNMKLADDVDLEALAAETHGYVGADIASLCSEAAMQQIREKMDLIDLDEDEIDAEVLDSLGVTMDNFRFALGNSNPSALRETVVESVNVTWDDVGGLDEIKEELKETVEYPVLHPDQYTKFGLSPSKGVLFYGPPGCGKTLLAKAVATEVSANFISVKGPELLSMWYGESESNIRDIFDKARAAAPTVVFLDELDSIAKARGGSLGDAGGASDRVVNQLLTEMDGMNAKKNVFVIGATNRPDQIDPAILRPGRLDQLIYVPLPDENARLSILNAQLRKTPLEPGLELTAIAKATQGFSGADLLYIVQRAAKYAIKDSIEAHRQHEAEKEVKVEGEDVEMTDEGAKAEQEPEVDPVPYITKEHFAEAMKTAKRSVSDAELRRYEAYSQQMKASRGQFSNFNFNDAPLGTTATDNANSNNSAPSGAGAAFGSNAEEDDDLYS
Assay: ATPase activity assay, T532C-yeast Cdc48
pIC50: −log10 of the molar value.
ASSAY READOUT: pIC50

T532C-yeast Cdc48 (Saccharomyces cerevisiae, UniProt P25694, T532C) / pIC50 / CC(C)(C)n1nc(-c2ccccc2)c2c(N)ncnc21 : value? < 4.00

Recorded values, source paper PMC7954469.
